Attribution: ChEMBL document CHEMBL1201862

- Test system: A498
- assay.details: NCI tumour cell line growth inhibition, 48 h
Activity calls are given as the source filed them. Rule as the data show it: active = GI50 up to about 1.1 µM and inactive = higher.
The categories you may choose from are true (1) for active, false (0) for inactive

[Q] Call for entry NCc1ccc(-c2ccc(CN)s2)s1 :
[A] false (0)

[Q] Call for entry O=c1[nH]c(=O)n([C@H]2CCCO2)cc1F :
[A] false (0)

[Q] Call for entry CN1c2ccccc2N(C)C23N(C)c4ccccc4N(C)C12N(C)c1ccccc1N3C (configuration not stated) :
[A] false (0)

[Q] Call for entry CC12CC/C(=N/NC(N)=O)C3C1CCCC32 :
[A] false (0)

[Q] Call for entry Nc1nc(Cl)c(N)c(NC23CC4CC(CC(C4)C2)C3)n1 :
[A] false (0)

[Q] Call for entry Clc1cccc(Cl)c1C1SCC2=Nc3ccccc3CN21 (configuration not stated) :
[A] false (0)

[Q] Call for entry C=C1C(=O)OC2/C=C(\C=O)CC/C=C(\C)C(O)C[C@@H]12 (some centres not stated) :
[A] false (0)

[Q] Call for entry CC(CC(=O)CO[C@H]1[C@H](O)[C@@H](O)[C@@H](O)[C@@H]2NC(=O)c3c(cc4c(c3O)OCO4)[C@H]21)OC1OC(CO)C(O)C(O)C1O (some centres not stated) :
[A] true (1)

[Q] Call for entry COC1C(=O)CCC2(CO2)C1(O)C1(C)OC1CC=C(C)C (configuration not stated) :
[A] false (0)

[Q] Call for entry Cc1ccc(S(=O)(=O)N2C[C@@H]3CC[C@]4(CO[Si](C)(C)C(C)(C)C)N[C@@H](c5ccccc5)[C@H]2[C@H]34)cc1 :
[A] false (0)

[Q] Call for entry CCOC(=O)c1c2ccccc2n2c(=O)n(-c3ccc(OC)cc3)nnc12 :
[A] false (0)

[Q] Call for entry Cc1ccccc1NC(=O)C(=O)C(C#N)c1ccccc1C (configuration not stated) :
[A] false (0)

[Q] Call for entry COc1ncc(/C=C2\OC(=O)c3ccccc32)c(OC)n1 :
[A] false (0)

[Q] Call for entry CC(/C=C/c1ccc([N+](=O)[O-])o1)=N/N1CC(CN2CCOCC2)OC1=O (configuration not stated) :
[A] false (0)

[Q] Call for entry C1=C(c2ccccc2)SC(N2CCCCC2)S1 (configuration not stated) :
[A] false (0)

[Q] Call for entry [O-]/N=[N+](/[O-])C1CCCCC1=[N+]1CCOCC1 (configuration not stated) :
[A] false (0)

[Q] Call for entry CN(C)c1cccc(NC2=NCCO2)c1 :
[A] false (0)

[Q] Call for entry Cc1cn(CC(=S)NCCc2c[nH]c3ccccc23)c(=O)[nH]c1=O :
[A] false (0)

[Q] Call for entry C1CN(P2(N3CC3)=NP(N3CC3)(N3CC3)=NP(N3CC3)(N3CC3)=N2)CCO1 (configuration not stated) :
[A] false (0)

[Q] Call for entry BrC12C3C4C5C(C(C43)C13OCCO3)C52 (configuration not stated) :
[A] false (0)

[Q] Call for entry Cc1ccc(S(=O)(=O)NC(CO)C(=O)O)cc1 (configuration not stated) :
[A] false (0)

[Q] Call for entry O=c1ccc(=O)c2c(=O)c3ccccc3c(=O)c1=2 :
[A] false (0)
